System: methicillin resistant Staphylococcus aureus (MRSA)
Assay: Assay for in vitro antibacterial activity, agar dilution (MRSA)
Settings: read-out: Minimum Inhibitory Concentration (MIC50) MRSA
quantity.measured: MIC50

>>> print(df.to_string())
                           structure_smiles     result
0  CC(=O)NC[C@H]1CN(c2ccc(-c3ccc(-c4nc(C)c(C)o4)nc3)c(F)c2)C(=O)O1    1 µg/mL
1  Cn1nnnc1-c1ccc(-c2ccc(N3C[C@H](CO)OC3=O)cc2F)cn1  0.5 µg/mL
2  Cl.Cn1nnnc1-c1ccc(-c2ccc(N3C[C@H](COC(=O)CCN)OC3=O)cc2F)cn1  0.5 µg/mL
3  CC(=O)NC[C@H]1CN(c2ccc(-c3ccc(-c4nc(COC(=O)CN)cs4)cc3)c(F)c2)C(=O)O1  0.5 µg/mL
